Quick list: protein stability index per entry.
B1: TRIM39 (parent)
chain: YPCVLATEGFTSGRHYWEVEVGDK

variants of: B1; experiment: protein stability index of a GFP-peptide fusion (GPS, HEK-293T) (PSI 1-6); higher = more stable; conditions: c terminus: a fixed tail appended;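 also: lentivirally expressed fusions sorted by FACS into six bins by GFP to DsRed ratio, PSI derived from sequencing read proportions per bin multiplied by bin number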
Assay Metric: protein stability index

1) G9Q; 2.04
2) G22W; 2.37
3) E8K; 2.25
4) Y1A; 3.11
5) P2V; 2.4
6) F10S; 1.9
7) V4F; 2.18
8) Y16Q; 2.16
9) T11C; 1.73
10) K24Q; 1.7
11) V19G; 2.6

Reference source for all entries: the supplement of paper PMC10567573
